Recorded measurements of Ka, one per entry
tested.target: EGFR extracellular domain (Homo sapiens, UniProt P00533)
assay.summary: Affinity test by surface plasmon resonance (Biacore T200, CM5 chip)
Format: binding
condition.notes: EGFR extracellular domain coupled on CM5 chip, analyte 4-256 nM

molecule | Ka, M⁻¹ s⁻¹
rLZ-8 (D45A): alanine mutant of rLZ-8 at D45 (protein) MSDTALIFRLAWDVKKLSFDYTPNWGRGNPNNFIDTVTFPKVLTAKAYTYRVAVSGRNLGVKPSYAVESDGSQKVNFLEYNSGYGIADTNTIQVFVVDPDTNNDFIIAQWN | 1200
rLZ-8 (K16A/S18A/K41A/D45A): alanine mutant of rLZ-8 at K16, S18, K41 and D45 (protein) MSDTALIFRLAWDVKALAFDYTPNWGRGNPNNFIDTVTFPAVLTAKAYTYRVAVSGRNLGVKPSYAVESDGSQKVNFLEYNSGYGIADTNTIQVFVVDPDTNNDFIIAQWN | 139
rLZ-8 (K41D/K46E/K74E): rLZ-8 mutant K41D, K46E and K74E (protein) MSDTALIFRLAWDVKKLSFDYTPNWGRGNPNNFIDTVTFPDVLTDEAYTYRVAVSGRNLGVKPSYAVESDGSQEVNFLEYNSGYGIADTNTIQVFVVDPDTNNDFIIAQWN | 35300
